The measured values listed here are drawn from the supplement of paper PMC10567573.

B1: RTN1 (parent)
chain: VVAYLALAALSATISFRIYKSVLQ

Variants of: B1
Test: protein stability index of a GFP-peptide fusion (GPS, HEK-293T) (PSI 1-6); higher = more stable;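 note: lentivirally expressed fusions sorted by FACS into six bins by GFP to DsRed ratio, PSI derived from sequencing read proportions per bin multiplied by bin number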
Settings: c terminus: a fixed tail appended
The class of a record is decided solely by its measured protein stability index; consult bin A (below 2), bin B (2 to below 3), bin C (3 or more)

Would you mind sorting `L7Y` into the appropriate category?
bin C

Would you mind sorting `A6S` into the appropriate category?
bin B

Would you mind sorting `S11Y` into the appropriate category?
bin B

Would you mind sorting `Y4E` into the appropriate category?
bin B

Would you mind sorting `A6Q` into the appropriate category?
bin A

---
Would you mind sorting `L23S` into the appropriate category?
bin A
